assay.name: glucagon-like peptide 1 release enhancers, primary assay, NCI-H716 cell line, NPC library (AID 1117341); further: reference of the scale not given here
reported.conditions: NCI-H716 cells, at 10 µM, active compounds read high
Calls of active or inactive are those of the source.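 How the source made its calls: active means compound raises GLP1 secretion from the human gut endocrine cells, with no numeric limit stated; inactive means the rest.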
GLP1 secretion stimulation values, listed per item

Some molecules with recorded GLP1 secretion stimulation:
# molecule, GLP1 secretion stimulation
records = [
    ("C[C@@H]1C[C@H]2[C@@H]3CCC4=CC(=O)C=C[C@]4(C)[C@@]3(Cl)[C@@H](O)C[C@]2(C)[C@@]1(OC(=O)c1ccco1)C(=O)CCl", "3.9% (inactive)"),
    ("C[C@H]1O[C@H](O[C@H]2[C@H](O)[C@@H](O)[C@@H](O[C@H]3[C@H](O)[C@@H](O)[C@H](O)O[C@@H]3CO)O[C@@H]2CO)[C@H](O)[C@@H](O)[C@@H]1N[C@H]1C=C(CO)[C@@H](O)[C@H](O)[C@H]1O", "-2.2% (inactive)"),
    ("CC(=O)c1ccc2c(c1)N(CCCN1CCC(CCO)CC1)c1ccccc1S2", "-6.7% (inactive)"),
]

Look up GLP1 secretion stimulation for this molecule: "CC(C)=CCC/C(C)=C/CO"
-1.8% (inactive)

What does the record list as GLP1 secretion stimulation for "COc1cccc2c1C(=O)c1c(O)c3c(c(O)c1C2=O)C[C@@](O)(C(C)=O)C[C@@H]3O[C@H]1C[C@H](N)[C@H](O)[C@H](C)O1" ?
3.4% (inactive)

# GLP1 secretion stimulation lookup, item "Clc1ccccc1CN1CCc2sccc2C1"
-2.6% (inactive)

Using the record for "CC(C=CC=C(C)C=CC1=C(C)CCCC1(C)C)=CC=CC=C(C)C=CC=C(C)C=CC1=C(C)CCCC1(C)C" , report its GLP1 secretion stimulation.
5.7% (inactive)

Name the reported GLP1 secretion stimulation value associated with the molecule "CC[N+](CC)(CC)CCOc1ccc(/C=C/c2ccccc2)cc1"
-1.8% (inactive)

Fill in the blank: the reported GLP1 secretion stimulation of "N=C(N)c1ccc2cc(OC(=O)c3ccc(N=C(N)N)cc3)ccc2c1" is ____.
2.8% (inactive)

Report GLP1 secretion stimulation for "CS(=O)(=O)c1ccc([C@@H](O)[C@@H](CF)NC(=O)C(Cl)Cl)cc1" please.
0.9% (inactive)

Fill in: GLP1 secretion stimulation of "CC1=C(/C=C/C(C)=C/C=C/C(C)=C/C(=O)Nc2ccc(O)cc2)C(C)(C)CCC1" is ___
2.4% (inactive)

Name the recorded GLP1 secretion stimulation for "O=C(O)[C@H](O)c1ccccc1" .
1.8% (inactive)

# get_value(readout='GLP1 secretion stimulation', item= CC(C(=O)O)c1ccc2c(c1)Cc1cccnc1O2 (stereo not given) )
-2.7% (inactive)

For the molecule "CC(=O)[C@@]1(O)CC[C@H]2[C@@H]3CCC4=CC(=O)CC[C@]4(C)[C@H]3CC[C@@]21C" , what GLP1 secretion stimulation is on record?
2% (inactive)

Dear colleague, I am looking for the recorded GLP1 secretion stimulation of the following molecule: "Cc1ccc(Nc2c(F)cccc2Cl)c(CC(=O)O)c1"
3.1% (inactive)

###

assay.name: growth inhibition of GSK3B-pretreated HCT116 cells – cell-based, CellTiter-Glo, 0.2 to 20 µM (AID 1117336)
reported.conditions: HCT116 viability after GSK3B inhibitor, at 20 µM
Activity calls are given as the source filed them.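 How the source made its calls: active means compounds lowering colon cancer cell viability after pretreatment blocking the GSK3B kinase; inactive means the rest.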
Allowed answers: class 1 for active, class 0 for inactive

For orientation, consider the following solved cases.
# compound, category.label
rows = [
    ("Cc1c(-c2ccc(O)cc2)n(Cc2ccc(OCCN3CCCCCC3)cc2)c2ccc(O)cc12", "class 1"),
    ("CCN1C(=O)NC(c2ccccc2)C1=O (stereo not drawn)", "class 0"),
]

Which outcome did this test record for the compound "CN(C)CCCOc1nn(Cc2ccccc2)c2ccccc12" ?
class 0

Fill in: this test's call for "CN(C)CCOC1=Cc2ccccc2Sc2ccc(Cl)cc21" is ___
class 1

Outcome? "Cc1ncc(C[n+]2csc(CCO)c2C)c(N)n1"
class 0

# outcome recorded in this test, key = CCC(C)(Oc1ccc(C2(c3ccc(OC(C)(CC)C(=O)O)cc3)CCCCC2)cc1)C(=O)O (stereo not drawn)
class 0

Which outcome did this test record for the compound "CN(C)C(=O)C(CCN1CCC(O)(c2ccc(Cl)cc2)CC1)(c1ccccc1)c1ccccc1" ?
class 1

// outcome(item) with item = COCCOC(=O)C1=C(C)NC(C)=C(C(=O)OC/C=C/c2ccccc2)C1c1cccc([N+](=O)[O-])c1 (stereo not drawn)
class 1

Please indicate how the test categorized CC1(c2ccccc2)OC(C(=O)O)=CC1=O (stereo not drawn) .
class 0

Could you check what this test reported for "CCOc1nc2cccc(C(=O)O)c2n1Cc1ccc(-c2ccccc2-c2nn[nH]n2)cc1" ?
class 0

Give the logged outcome of this assay for the following compound: CCCCN(CCCC)CC(O)c1cc(Cl)cc2c1-c1ccc(Cl)cc1/C2=C/c1ccc(Cl)cc1 (stereo not drawn)
class 0

Field: outcome | Entry: "Nc1c(CC(=O)O)cccc1C(=O)c1ccccc1"
class 0

Short answer needed: outcome of this test for "CCn1cc(C(=O)O)c(=O)c2ccc(C)nc21" ?
class 0

// return assay outcome for "CN/C(=C\[N+](=O)[O-])NCCSCc1ccc(CN(C)C)o1"
class 0

Each compound tested received a call. Report the one for "CC12CCC(CC1)C(C)(C)O2" .
class 0

# outcome recorded in this test, key = "O=C(N/N=C/c1ccc([N+](=O)[O-])o1)c1ccc(O)cc1"
class 1

Given "CN(Cc1ccc(C(C)(C)C)cc1)Cc1cccc2ccccc12" , state the outcome it received in this test.
class 0

Test call for this compound, please: COc1ccc2[nH]c(S(=O)Cc3ncc(C)c(OC)c3C)nc2n1 (stereo not drawn)
class 0

// param item: "CC(C)OC(=O)C(C)(C)Oc1ccc(C(=O)c2ccc(Cl)cc2)cc1" ; yields the recorded call
class 1

How was CC(C)(Oc1ccc(C2CC2(Cl)Cl)cc1)C(=O)O (stereo not drawn) classified in this test?
class 0

Reference source: PubChem BioAssay
